Let's look at some pIC50 data for C-C chemokine receptor type 5 (Homo sapiens, UniProt P51681) that I collected from the literature.
pIC50: −log10 of the molar value.
readout_type: pIC50

{"compound": "COc1ccc2c(COc3cccc4[nH]c(C(=O)N[C@H]5CC[C@](O)(CCN6CC[C@H](O)[C@@H](C)C6)CC5)cc34)coc2c1", "comparison_symbol": "=", "number": 8.24}
{"compound": "C[C@H]1CN(CC[C@]2(O)CC[C@@H](NC(=O)c3cc4c(OCc5ccoc5)cccc4[nH]3)CC2)CC[C@@H]1O", "comparison_symbol": "=", "number": 7.86}
{"compound": "O=C1/C(=C\\c2ccco2)SC(c2cccc(Cl)c2)N1CCCN1CCCCC1 (stereo not shown)", "comparison_symbol": "=", "number": 6.77}
{"compound": "COC(OC)c1ccc(S(=O)(=O)N(C)CC(C)(CCN2CCC3C(CCN3C(=O)OC(C)(C)C)C2)c2ccccc2)cc1 (stereo not shown)", "comparison_symbol": ">", "number": 7.00}
{"compound": "COC(=O)[C@@H](CCSC)NC(=O)C1CCN(CC[C@](C)(CN(C)S(=O)(=O)c2ccccc2)c2ccccc2)CC1", "comparison_symbol": ">", "number": 6.00}
{"compound": "O=C1/C(=C\\c2cccc(F)c2)SC(c2cccc(Cl)c2)N1C1CCN(Cc2ccccc2)CC1 (stereo not shown)", "comparison_symbol": "=", "number": 6.55}
{"compound": "CCN(CC)CCSCCCN1C(=O)/C(=C\\c2cccc(F)c2)SC1c1cccc(Cl)c1 (stereo not shown)", "comparison_symbol": "=", "number": 4.90}
{"compound": "CN(C[C@@](C)(CCN1CC[C@H]2[C@H](CCN2C(=O)OC(C)(C)C)C1)c1ccccc1)S(=O)(=O)c1ccccc1", "comparison_symbol": ">", "number": 6.00}
{"compound": "CCN(CC)CCOc1ccc2c(c1)c(C(=O)OCc1ccccc1)c(C)n2Cc1ccccc1", "comparison_symbol": "=", "number": 4.74}
{"compound": "CN(C[C@@](C)(CCN1C2CCC1CC(NC(=O)OCc1ccccc1)C2)c1ccccc1)S(=O)(=O)c1ccccc1 (stereo partly shown)", "comparison_symbol": ">", "number": 7.00}
{"compound": "C[C@H](NC(=O)N1CC2CN(CC[C@](C)(CN(C)S(=O)(=O)c3ccccc3)c3ccccc3)CC[C@H]2C1)c1cccc2ccccc12 (stereo partly shown)", "comparison_symbol": ">", "number": 6.00}
{"compound": "COc1ccc(C(C)(CCN2CCC3C(CCN3C(=O)OC(C)(C)C)C2)CN(C)S(=O)(=O)c2ccccc2)cc1 (stereo not shown)", "comparison_symbol": ">", "number": 7.00}
{"compound": "CN(C[C@@](C)(CCNC1CC2CCC(C1)N2C(=O)OC(C)(C)C)c1ccccc1)S(=O)(=O)c1ccccc1 (stereo partly shown)", "comparison_symbol": ">", "number": 6.00}
{"compound": "CCCCN(C(=O)Nc1cc(C(N)=O)c(F)cc1F)C1CCN(Cc2ccc(Oc3ccc(C(=O)NCC)cc3)nc2C)CC1", "comparison_symbol": "≥", "number": 7.00}
{"compound": "Cc1nnc(C2CO[C@H]3OCCC23)n1C1CC2CCC(C1)N2CC[C@H](NC(=O)OCc1ccccc1)c1ccccc1 (stereo partly shown)", "comparison_symbol": ">", "number": 7.00}
{"compound": "Cc1[nH]c2ccc(NCCN3CCCC3)cc2c1C(=O)OCc1ccccc1", "comparison_symbol": "=", "number": 4.76}
{"compound": "Cc1ncnc(C)c1C(=O)N1CCC(C)(N2CCC(N3C(=O)N(CC4CCN(S(C)(=O)=O)CC4)C[C@H]3c3ccccc3)CC2)CC1", "comparison_symbol": "=", "number": 6.93}
{"compound": "CN(CC(C)(CCN1CCC2C(CCN2C(=O)OC(C)(C)C)C1)c1ccccc1)S(=O)(=O)c1ccc(CNC(=O)OC(C)(C)C)cc1 (stereo not shown)", "comparison_symbol": ">", "number": 6.00}
{"compound": "CCCCC1CN(C[C@H]2CCOC2)C(=O)CC12CCN(C1(C)CCN(C(=O)c3c(C)ccnc3C)CC1)CC2 (stereo partly shown)", "comparison_symbol": "=", "number": 7.75}
{"compound": "CCO[C@H]1CC[C@H](CN2C[C@@H](c3ccccc3)N(C3CCN(C4(C)CCN(C(=O)c5c(C)cc(C#N)nc5C)CC4)CC3)C2=O)CC1", "comparison_symbol": "=", "number": 7.97}
{"compound": "CCCCC1CN(CC2CCC(OCC)CC2)C(=O)CC12CCN(C1(C)CCN(C(=O)c3c(C)ncnc3C)CC1)CC2 (single isomer, unassigned)", "comparison_symbol": "=", "number": 7.48}
{"compound": "O=C1/C(=C\\c2cccc(F)c2)SC(c2ccccc2)N1CCCN1CCC(N2CCCCC2)CC1 (stereo not shown)", "comparison_symbol": "=", "number": 6.15}
{"compound": "Cc1[nH]c2ccc(OC(C)C(C)N3CCCC3)cc2c1C(=O)OCc1ccccc1 (stereo not shown)", "comparison_symbol": "=", "number": 5.26}
{"compound": "CCOCCOc1ccc2c(COc3cccc4[nH]c(C(=O)N[C@H]5CC[C@](O)(CCN6CC[C@H](O)[C@@H](C)C6)CC5)cc34)coc2c1", "comparison_symbol": "=", "number": 8.54}
{"compound": "O=C1/C(=C\\c2cccc(F)c2)SC(c2cccc(Cl)c2)N1CCCN1CCCCC1 (stereo not shown)", "comparison_symbol": "=", "number": 6.70}
{"compound": "Cn1cccc1C=C1SC(c2cccc(Cl)c2)N(CCCN2CCCCC2)C1=O (stereo not shown)", "comparison_symbol": "=", "number": 6.01}
{"compound": "CC(C)COC(=O)NC1CC2CCC(C1)N2CC[C@](C)(CN(C)S(=O)(=O)c1ccccc1)c1ccccc1 (stereo partly shown)", "comparison_symbol": ">", "number": 7.00}
{"compound": "Cc1ccc(S(=O)(=O)N[C@@H](CCN2C3CCC2CC(n2c(C)nnc2C2CO[C@H]4OCCC24)C3)c2ccccc2)cc1 (stereo partly shown)", "comparison_symbol": ">", "number": 6.00}
